Attribute: protein stability index
Test: protein stability index of a GFP-peptide fusion (yeast GPS) (PSI 1-4); higher = more stable; sorted into four equal gates, so the index is relative within each strain
Details: ubr1∆
Write no unit; give the number alone.

Some solved entries appear below for comparison.
SIKEHSTTMDGANDLGF [MED1] = 2.86
PTTVSYIFCISRTIGMV [SCL1] = 1.95
SARGSYLRVSFKNTRET [RPL17A] = 2.86
ILDPQVTRFTTWNGSPF [YJL039C/NUP192] = 2.56
KISEGSAKPTFSFSKSE [YOR098C/NUP1] = 1.77
YPMMHQVRNQVFMLDTK [RGR1] = 2.75

// switching to the query sequence
Task: # input sequence: LLPFVKGNVGFVFTNEP [RPP0] ; wanted: its protein stability index
Result: 1.84

* * *

Test: protein stability index of a GFP-peptide fusion (yeast GPS) (PSI 1-4); higher = more stable; sorted into four equal gates, so the index is relative within each strain
Conditions: pdr5∆
PARAMETER: protein stability index
Write no unit; give the number alone.

Some solved entries appear below for comparison.
GTNPLSSDGAYTEQFQH [SSN2] = 3.09
GRVYRPLFIVEDDESLG [RPB2] = 1.8

// switching to the query sequence
Task: # input sequence: NGNWEVGVHIADVTHFV [DIS3] ; wanted: its protein stability index
Result: 2.09

* * *

Assay: protein stability index of a GFP-peptide fusion (yeast GPS) (PSI 1-4); higher = more stable; sorted into four equal gates, so the index is relative within each strain
Conditions: pdr5∆
PARAMETER: protein stability index
Write no unit; give the number alone.

Some solved entries appear below for comparison.
GNISSSTVKKKDIVNIS [REC8] = 3.07
GKKVLNKNQLLKRNRIR [POP1] = 3.08
SASHFEQYTKKINSWDQ [YJL041W/NSP1] = 3.06
LYKFQNFQDLSYLSETL [YML103C/NUP188] = 2.87
VRELVEKIDGMDVDSVK [RPC82] = 3.41
KLANFFSKKGNEPLSEI [YAR002W/NUP60] = 3.17

Task: # input sequence: PKASSAKFFLNVSDEQL [ITC1] ; wanted: its protein stability index
Result: 3.18

Task: # input sequence: GGTSDMNYLLDNKINEI [CSI1] ; wanted: its protein stability index
Result: 2.87

Task: # input sequence: HKVTQKKDIKIGTNDLF [SIR4] ; wanted: its protein stability index
Result: 2.61

Task: # input sequence: KKSKNGTISKTGKKNKV [SRP14] ; wanted: its protein stability index
Result: 3.26

Task: # input sequence: RRERRLIFGTIASKMSL [RPT3] ; wanted: its protein stability index
Result: 2.48

Task: # input sequence: EVGNRKHYLEDKLKVYK [SNF5] ; wanted: its protein stability index
Result: 3.19

Task: # input sequence: KPTEVNDSENNSSEEDK [ITC1] ; wanted: its protein stability index
Result: 2.74

Task: # input sequence: AAIKDLDDFGEEELFEV [RRP43] ; wanted: its protein stability index
Result: 2.49

Task: # input sequence: NGGNNTQQPGTNSHYNN [SNF2] ; wanted: its protein stability index
Result: 3.16

Task: # input sequence: VSIKDSTGCVVGLSQPD [YMR129W/POM152] ; wanted: its protein stability index
Result: 2.32

Task: # input sequence: IVRDLDRPGSKFHKREV [RPL3] ; wanted: its protein stability index
Result: 3.44

Data provenance: the supplement of paper PMC9732359
